Cited source: paper PMC4118284

- Protocol notes: clinical
- Reported conditions: human, plasma, intravenous, C24 h, Mean ± SD, Concomitant midostaurin n = 13; cycle 1, day 1
Assay endpoint: concentration at 24 h (ng/mL)
Hi! Could you send only the number? It should be in ng/mL, unit omitted.

Exercise: If you can, please state the reported concentration at 24 h value of COc1cccc2c1C(=O)c1c(O)c3c(c(O)c1C2=O)C[C@@](O)(C(C)=O)C[C@@H]3O[C@H]1C[C@H](N)[C@H](O)[C@H](C)O1 .
Solution: 17.4

* * *

- Protocol notes: clinical
- Reported conditions: human, plasma, intravenous, Tmax, Median, Sequential midostaurin n = 13; cycle 1, day 1
Assay endpoint: Tmax (min)
Hi! Could you send only the number? It should be in min, unit omitted.

Exercise: If you can, please state the reported Tmax value of COc1cccc2c1C(=O)c1c(O)c3c(c(O)c1C2=O)C[C@@](O)(C(C)=O)C[C@@H]3O[C@H]1C[C@H](N)[C@H](O)[C@H](C)O1 [daunorubicin] .
Solution: 30

* * *

- Protocol notes: clinical
- Reported conditions: human, plasma, intravenous, Tmax, Mean ± SD, Concomitant midostaurin n = 13; cycle 1, day 1
Assay endpoint: Tmax (min)
Hi! Could you send only the number? It should be in min, unit omitted.

Exercise: If you can, please state the reported Tmax value of COc1cccc2c1C(=O)c1c(O)c3c(c(O)c1C2=O)C[C@@](O)(C(C)=O)C[C@@H]3O[C@H]1C[C@H](N)[C@H](O)[C@H](C)O1 [daunorubicin] .
Solution: 30

* * *

- Protocol notes: clinical
- Reported conditions: human, plasma, intravenous, AUC (0–24 h), Mean ± SD, Concomitant midostaurin n = 13; cycle 1, day 1
Assay endpoint: AUC(0-t) (ng·h/mL)
Hi! Could you send only the number? It should be in ng·h/mL, unit omitted.

Exercise: If you can, please state the reported AUC(0-t) value of COc1cccc2c1C(=O)c1c(O)c3c(c(O)c1C2=O)C[C@@](O)(C(C)=O)C[C@@H]3O[C@H]1C[C@H](N)[C@H](O)[C@H](C)O1 .
Solution: 373

* * *

- Protocol notes: clinical
- Reported conditions: human, plasma, intravenous, Cmax, Mean ± SD, Concomitant midostaurin n = 13; cycle 1, day 1
Assay endpoint: Cmax (ng/mL)
Hi! Could you send only the number? It should be in ng/mL, unit omitted.

Exercise: If you can, please state the reported Cmax value of COc1cccc2c1C(=O)c1c(O)c3c(c(O)c1C2=O)C[C@@](O)(C(C)=O)C[C@@H]3O[C@H]1C[C@H](N)[C@H](O)[C@H](C)O1 [daunorubicin] .
Solution: 98

* * *

- Protocol notes: clinical
- Reported conditions: human, plasma, intravenous, AUC (0–24 h), Median, Sequential midostaurin n = 13; cycle 1, day 1
Assay endpoint: AUC(0-t)
Could you give the number and then its unit, please?

Exercise: If you can, please state the reported AUC(0-t) value of COc1cccc2c1C(=O)c1c(O)c3c(c(O)c1C2=O)C[C@@](O)(C(C)=O)C[C@@H]3O[C@H]1C[C@H](N)[C@H](O)[C@H](C)O1 [daunorubicin] .
Solution: 159 ng·h/mL
